Origin of the recorded values: patent US10556936B2

System: basophils in whole blood from HDM allergic donors
Test: Basophil Activation Test (BAT)
Assay type: cell-based, human
Conditions: 10 ng/ml; blood from HDM allergic individuals (n=14)
Experimental: Basophil Activation Test (BAT) was used as a predictive in vitro assay for indication of safety/immediate hypersensitivity reactions. The BAT assay is a widely used diagnostic test that is also used for evaluation of allergenicity of allergen derived components. In short: whole blood from HDM allergic donors was stimulated for 1 h with the proteins, and the increased expression of activation markers on the surface of basophils were measured by flow cytometry. […]
Please mark label 1 if the recorded # of individuals of 14 with positive BAT test is equal to or greater than 2, and label 0 if it falls below.

molecule: A025: house dust mite protein; SEQ ID NO: 17 (Der f), 18 (Der p) (protein) QSLFVDYNDYSCGSSQNETNELIQEFKIFKKNINGNENFKKINDFIEKARLFRDNAAKQMLEIDQQLLTLNVIQISQRIKLENNKIQCEKLTKFSELLSMQLLAYEVGMFEFAEEIDPNIDFDRKMKNFLDETSRLFNLAEFEKLEKKFRNATSIEKLKNYIDGELVALNDYINEFLKDIIMSEFTVQSRYYLNFSIEDQVQIDSTLMTFSALKILLNDLKDYLEHLDN
discrete.label: label 0
//
molecule: A023: house dust mite protein; SEQ ID NO: 23 (Der f), 24 (Der p) (protein) DPVQQRPTLRGVTVRVGPFVKENNGKFEGFIPDLVQAISEKVGFDYTLYLSPDGRYGNVISDGNVTGMIGEVYNKKADFAAADLTMTEARENYITFTEPFMINQLAALIRREDAEGLNTLEDLAKAQETFPKRKRIVLGTLRNGATNYFLSKSDDPLAKKIYEQIKADDQSVVKSISEGVERVDKQGGYAFIMESASAEHEIANNCKLTMLLDWRNLFPRKYAFALPKDSPYLEHFNNAIKQLNSEGKIAELRRKYWANNCAENKTKDDKN
discrete.label: label 0
//
molecule: A001: house dust mite protein; SEQ ID NO: 13 (Der f), 14 (Der p); recombinant test protein (protein) KKSPDCDIERPIRECLKDGLLRYSSGQKINQFPDTIQDLNRACEELKKSETCARTFIDTCTESSYEKRSLDSLLDGIQRVMKRLCRSQTKKEKLLENVGCANSVVQDTKQCLKNYRMLVFAANKLDNKNKIMRILCCKSRKVAPCIGEAMKAKGTAVCSAKNIDYFKDVHQNIKQEMTAVVCSDFERDQCENVDVPNISESEYKDQNIFNPLRDLYKKVILG
discrete.label: label 0
//
molecule: Derf1: major house dust mite allergen, group 1, Dermatophagoides farinae; control (protein, UniProt P16311 99-321, looked up) Peptidase 1: TSACRINSVNVPSELDLRSLRTVTPIRMQGGCGSCWAFSGVAATESAYLAYRNTSLDLSEQELVDCASQHGCHGDTIPRGIEYIQQNGVVEERSYPYVAREQRCRRPNSQHYGISNYCQIYPPDVKQIREALTQTHTAIAVIIGIKDLRAFQHYDGRTIIQHDNGYQPNYHAVNIVGYGSTQGDDYWIVRNSWDTTWGDSGYGYFQAGNNLMMIEQYPYVVIM
discrete.label: label 1
//
molecule: Derp1: major house dust mite allergen, group 1, Dermatophagoides pteronyssinus; control (protein, UniProt P08176 99-320, looked up) Peptidase 1: TNACSINGNAPAEIDLRQMRTVTPIRMQGGCGSCWAFSGVAATESAYLAYRNQSLDLAEQELVDCASQHGCHGDTIPRGIEYIQHNGVVQESYYRYVAREQSCRRPNAQRFGISNYCQIYPPNVNKIREALAQTHSAIAVIIGIKDLDAFRHYDGRTIIQRDNGYQPNYHAVNIVGYSNAQGVDYWIVRNSWDTNWGDNGYGYFAANIDLMMIEEYPYVVIL
discrete.label: label 1
//
molecule: A017: house dust mite protein; SEQ ID NO: 21 (Der f), 25 (Der p), 313 (Blo t) (protein) MSSSSGKKYDFSGKVALVTGSSSGIGAAIALQFAQYGAQVTITGRDAAALESVAKRIEAESGHQPLQIVGNLLDQSLPAKLIDGTISKYGRLDFLVNNAGFSTQHRDIHDEKLMEAFDQVYGLNVRAVVQLSQLAATHLEKSKGNIINISSNLSMMPVHIIYSSSKAALDMITKTMAMEFGKKGVRVNSINPGPVATQFMRSLGMPVTFLKENEEFVKELTLLKFVAQPVEIANLASFLASDDARNMTGSIVVNDTGSLLAPRVDFKKLDEIKKK
discrete.label: label 0
//
molecule: A003: house dust mite protein; SEQ ID NO: 2 (Der f), 3 (Der p), 305 (Blo t) (protein) MAIDGKYQMESSEHFEEFVKEMGLDVDMTNVDLSKTSTMEICKDGDVYHIKSETAGIAHEIKFKVGEEFEDDMNGHKFKNVVTMECDNKMVQKKTSADGGKVVNVVREFTDAGCTVKSTYNTVTWTRVYKRM
discrete.label: label 0
//
molecule: A018: house dust mite protein; SEQ ID NO: 5 (Der f), 6 (Der p), 314 (Blo t) (protein) MVKAVVVLKGDPNVSGTIFFEQQDNGPVKVTGSVQGLKPGLHGFHVHEFGDNTNGCTSAGAHYNPLNKTHGAPNDEERHVGDLGNIEANDKGVANVVIEDSLISLTGEKSIVGRSLVVHADPDDLGRGGHELSKTTGNAGGRLVCGVIGVTK
discrete.label: label 0
//
molecule: Derf2: major house dust mite allergen, group 2, Dermatophagoides farinae; control (protein, UniProt Q00855 18-146, looked up) Mite group 2 allergen Der f 2: DQVDVKDCANNEIKKVMVDGCHGSDPCIIHRGKPFTLEALFDANQNTKTAKIEIKASLDGLEIDVPGIDTNACHFMKCPLVKGQQYDIKYTWNVPKIAPKSENVVVTVKLIGDNGVLACAIATHGKIRD
discrete.label: label 1
